Where these numbers come from: PubChem BioAssay AID1918991

System: 186277-243-T-J2-PDC complex spheroid growth;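 further: luminescent signal used as a stand-in for viable cell amount; spheroids exposed to compounds for seven days before the viability read; 100% = DMSO vehicle control wells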
test summary: Anticancer human tumor 186277-243-T-J2-PDC patient-derived colon adenocarcinoma cell line growth inhibition [AhR]; active means viability on the fitted dose curve at most 10% of control; inactive means the rest
test parameters: second compound 10 µM; first compound 0.00949 µM
Text: Multicellular complex tumor spheroid response to aryl hydrocarbon receptor antagonists in combination with a variety of drugs and investigational agents in selected tumor cell lines […] Compounds. […] If the clinical Cmax for an agent had not been determined, the highest concentration tested was 10 microM (Table 1). […]
Labels: 1 (yes) = active, 0 (no) = inactive

compound | discrete label
CCN(c1cc(-c2ccc(CN3CCOCC3)cc2)cc(C(=O)NCc2c(C)cc(C)[nH]c2=O)c1C)C1CCOCC1 + Cc1ccccc1N=Nc1ccc(NC(=O)c2ccnn2C)c(C)c1 | 0 (no)
CC(C)CC(NC(=O)C(Cc1ccccc1)NC(=O)c1cnccn1)B(O)O (configuration not stated) + CC(CO)NC(=O)c1cc(-c2ccc(Cl)cc2)nn(-c2cnn(C)c2)c1=O | 1 (yes)
Nc1ncn(C2CC(O)C(CO)S2)c(=O)n1 (configuration not stated) + Cc1cncc(-c2nc(NCCc3c[nH]c4ccccc34)c3ncn(C(C)C)c3n2)c1 | 0 (no)
Nc1ncn(C2CC(O)C(CO)S2)c(=O)n1 (configuration not stated) + Cc1ccccc1N=Nc1ccc(NC(=O)c2ccnn2C)c(C)c1 | 0 (no)
CCN(c1cc(-c2ccc(CN3CCOCC3)cc2)cc(C(=O)NCc2c(C)cc(C)[nH]c2=O)c1C)C1CCOCC1 + Cc1cncc(-c2nc(NCCc3c[nH]c4ccccc34)c3ncn(C(C)C)c3n2)c1 | 0 (no)
O=C(C=Cn1cnc(-c2cc(C(F)(F)F)cc(C(F)(F)F)c2)n1)NNc1cnccn1 + Cc1cncc(-c2nc(NCCc3c[nH]c4ccccc34)c3ncn(C(C)C)c3n2)c1 | 0 (no)
CCc1c2c(nc3ccc(O)cc13)-c1cc3c(c(=O)n1C2)COC(=O)[C@]3(O)CC + CC(CO)NC(=O)c1cc(-c2ccc(Cl)cc2)nn(-c2cnn(C)c2)c1=O | 0 (no)
Nc1ncn(C2CC(O)C(CO)S2)c(=O)n1 (configuration not stated) + CC(CO)NC(=O)c1cc(-c2ccc(Cl)cc2)nn(-c2cnn(C)c2)c1=O | 0 (no)
CCc1c2c(nc3ccc(O)cc13)-c1cc3c(c(=O)n1C2)COC(=O)[C@]3(O)CC + Cc1cncc(-c2nc(NCCc3c[nH]c4ccccc34)c3ncn(C(C)C)c3n2)c1 | 0 (no)
O=C(C=Cn1cnc(-c2cc(C(F)(F)F)cc(C(F)(F)F)c2)n1)NNc1cnccn1 + CC(CO)NC(=O)c1cc(-c2ccc(Cl)cc2)nn(-c2cnn(C)c2)c1=O | 0 (no)
CC(C)CC(NC(=O)C(Cc1ccccc1)NC(=O)c1cnccn1)B(O)O (configuration not stated) + Cc1ccccc1N=Nc1ccc(NC(=O)c2ccnn2C)c(C)c1 | 0 (no)
O=C(C=Cn1cnc(-c2cc(C(F)(F)F)cc(C(F)(F)F)c2)n1)NNc1cnccn1 + Cc1ccccc1N=Nc1ccc(NC(=O)c2ccnn2C)c(C)c1 | 0 (no)
